pIC50: −log10 of the molar value.
From various publications: pIC50 for IRAK4 (Homo sapiens (Human), UniProt Q9NWZ3).

Before answering, review these 3 worked examples.
| COMPOUND | pIC50 |
| --- | --- |
| CN(C)[C@H]1CC[C@H](Nc2ncnc3sc4c(c23)C(CC(=O)O)CC4)CC1 (stereo partly shown) | 4.70 to 5.30 |
| CC1(C)OC(=O)c2ccc(Nc3ncc(-c4nc(C56CC(N)(C5)C6)no4)c(N[C@H](CO)c4ccccc4)n3)cc21 | 6.00 to 6.60 |
| Cn1cc(-c2cccc(-c3ncc(-c4cnn(C)c4)c(NC[C@H]4CC[C@H](O)C4)n3)c2)cn1 (racemic) | > 7.00 |

From here, focus on the item given below.
// returns reported pIC50 for input CCNC(=O)CC1CCc2sc3ncnc(N[C@H]4CC[C@H](N(C)C)CC4)c3c21 (stereo partly shown)
4.70 to 5.30
